# Experimental target: Protein kinase C alpha type (Homo sapiens) (UniProt P17252);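 note: each value is the mean percent inhibition of PKC-alpha kinase activity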
# Run parameters: at 0.1 µM
Readout label: inhibition (%)
Field format: number, assumed %, no unit text.

Reference set, count: 2
CC(=O)Nc1cccc(C#Cc2cncnc2Nc2ccc(OCc3cccc(F)c3)c(Cl)c2)n1 | 1.1
Cn1cc(C=C2C(=O)Nc3cccnc32)c2ccccc21 | 1

API: the following record is the query input.
Data request: Output inhibition of NS(=O)(=O)c1ccc(N/N=C2\C(=O)Nc3ccc(C(=O)NCCc4c[nH]cn4)cc32)cc1
Data returned: 1.52

###

# Experimental target: Insulin receptor-related protein (Homo sapiens) (UniProt P14616);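 note: each reported figure is the mean of the IRR inhibition readings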
# Sequence (P14616 27-742 limits assumed): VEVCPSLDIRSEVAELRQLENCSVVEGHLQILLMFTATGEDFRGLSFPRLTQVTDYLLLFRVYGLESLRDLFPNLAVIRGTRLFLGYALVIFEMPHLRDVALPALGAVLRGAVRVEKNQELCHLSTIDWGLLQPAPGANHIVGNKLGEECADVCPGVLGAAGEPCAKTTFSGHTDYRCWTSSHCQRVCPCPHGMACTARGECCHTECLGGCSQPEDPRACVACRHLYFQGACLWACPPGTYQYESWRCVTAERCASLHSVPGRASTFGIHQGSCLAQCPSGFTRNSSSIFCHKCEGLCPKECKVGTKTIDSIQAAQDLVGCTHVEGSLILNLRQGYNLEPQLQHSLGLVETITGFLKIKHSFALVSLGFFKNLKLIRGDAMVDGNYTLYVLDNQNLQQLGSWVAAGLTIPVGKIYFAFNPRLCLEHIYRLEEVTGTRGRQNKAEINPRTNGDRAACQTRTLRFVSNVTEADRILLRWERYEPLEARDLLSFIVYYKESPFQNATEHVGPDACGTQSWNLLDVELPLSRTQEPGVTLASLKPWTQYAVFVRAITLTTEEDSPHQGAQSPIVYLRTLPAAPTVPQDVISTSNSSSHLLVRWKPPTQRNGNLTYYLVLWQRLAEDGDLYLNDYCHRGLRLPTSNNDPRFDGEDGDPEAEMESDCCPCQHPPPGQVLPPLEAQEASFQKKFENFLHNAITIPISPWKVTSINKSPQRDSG
# Sequence (P14616 747-1297 limits assumed): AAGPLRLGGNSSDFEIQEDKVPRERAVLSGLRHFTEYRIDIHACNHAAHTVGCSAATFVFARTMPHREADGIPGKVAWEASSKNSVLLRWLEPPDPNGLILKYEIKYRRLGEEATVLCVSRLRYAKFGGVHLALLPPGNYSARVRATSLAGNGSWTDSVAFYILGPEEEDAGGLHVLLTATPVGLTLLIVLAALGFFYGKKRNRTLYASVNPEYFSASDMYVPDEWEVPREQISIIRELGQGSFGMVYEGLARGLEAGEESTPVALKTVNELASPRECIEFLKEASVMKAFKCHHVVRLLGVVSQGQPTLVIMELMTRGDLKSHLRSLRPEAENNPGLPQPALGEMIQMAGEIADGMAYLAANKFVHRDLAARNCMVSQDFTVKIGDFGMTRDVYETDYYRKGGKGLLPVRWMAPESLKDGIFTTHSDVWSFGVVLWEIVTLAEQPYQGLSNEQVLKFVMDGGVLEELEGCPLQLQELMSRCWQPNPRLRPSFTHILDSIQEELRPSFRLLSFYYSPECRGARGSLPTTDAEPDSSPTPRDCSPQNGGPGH
# Run parameters: at 1 µM
Readout label: inhibition (%)
Field format: number, assumed %, no unit text.

O=C1Nc2ccc(C(=O)c3ccco3)cc2C1=Cc1cc(Cl)c(O)c(Cl)c1 | 2.14
COc1ccc(COc2ccc(Cc3cnc(N)nc3N)cc2OC)cc1 | -0.57

Data request: Output inhibition of CN(C)c1cc2c(Nc3ccc4nc(Cc5ccccc5)[nH]c4c3)ncnc2cn1
Data returned: 4.95

Data request: Output inhibition of CS(=O)(=O)CCNCc1ccc(-c2ccc3ncnc(Nc4ccc(OCc5cccc(F)c5)c(C(F)(F)F)c4)c3c2)o1
Data returned: 2.55

Data request: Output inhibition of CCCN1CCC(Oc2cc(Nc3nc(Nc4cccc(F)c4C(N)=O)c4cc[nH]c4n3)c(OC)cc2Cl)CC1
Data returned: 37.6

Data request: Output inhibition of CC1=C(C(=O)Nc2ccc3[nH]ncc3c2)C(c2ccc(F)cc2)NC(=O)N1 (stereo not given)
Data returned: 0.72

Data request: Output inhibition of COc1ccc(-c2coc3ncnc(N)c23)cc1
Data returned: 1.27

Data request: Output inhibition of Nc1ncnc2occ(-c3ccc(NC(=O)Nc4cc(C(F)(F)F)cc(C(F)(F)F)c4)cc3)c12
Data returned: 2.23

Data request: Output inhibition of CS(=O)(=O)Nc1ccc(N/C=C2\C(=O)Nc3ccccc32)cc1
Data returned: -1.01

Data request: Output inhibition of CCn1c(-c2nonc2N)nc2cnc(Oc3cccc(NC(=O)c4ccc(OCCN5CCOCC5)cc4)c3)cc21
Data returned: 0.16

Data request: Output inhibition of CC1=C(C(=O)Nc2ccc3[nH]ncc3c2)C(c2ccc(Cl)c(Cl)c2)CC(=O)N1 (stereo not given)
Data returned: 1.03

Data request: Output inhibition of CC1=C(C(=O)Nc2ccc3[nH]ncc3c2)C(c2ccc3ccccc3c2)CC(=O)N1 (stereo not given)
Data returned: 1.74

Data request: Output inhibition of COc1cc2ncn(-c3cc(OCc4ccccc4C(F)(F)F)c(C(N)=O)s3)c2cc1OC
Data returned: 3.34

Data request: Output inhibition of CCN1CCC(CC(=O)Nc2n[nH]c3nc(-c4cccs4)c(Br)cc23)CC1
Data returned: 0.01

Data request: Output inhibition of CS(=O)(=O)CCNCc1nc(-c2ccc3ncnc(Nc4ccc(F)c(Cl)c4)c3c2)cs1
Data returned: 1.63

Data request: Output inhibition of CCn1c(-c2nonc2N)nc2cncc(C(=O)N3CC[C@H](N)C3)c21
Data returned: 1.96

Data request: Output inhibition of CCn1c(-c2nonc2N)nc2cncc(C(=O)N3CCNCC3)c21
Data returned: 6.22

Data request: Output inhibition of c1cnn2ncc(-c3ccnc(Nc4ccc5c(c4)OCCO5)n3)c2c1
Data returned: 15.2

Data request: Output inhibition of COc1cccc(-n2ncc3c(N/N=C/c4cccc(F)c4)ncnc32)c1
Data returned: 0.48

Data request: Output inhibition of CCc1cccc(NC(=O)Nc2ccc(Oc3ccc4nc(NC(=O)OC)[nH]c4c3)cc2)c1
Data returned: 3.39
